Known IC50 (read off the curve) of a selection of binders
molecular target: T1, human PD-L1 (full-length, on cells) (human, UniProt Q9NZQ7 19-290); test: FACS blocking on huPDL1-CHO cells; blocked ligand PD-1-Biotin 1 µg/mL; MFI = bound PD-1
T1 construct: whole, on cells; Expressed on CHO-s cells; also called human PD-L1-CHO; PD-L1-CHO
T1 sequence (Q9NZQ7 19-290): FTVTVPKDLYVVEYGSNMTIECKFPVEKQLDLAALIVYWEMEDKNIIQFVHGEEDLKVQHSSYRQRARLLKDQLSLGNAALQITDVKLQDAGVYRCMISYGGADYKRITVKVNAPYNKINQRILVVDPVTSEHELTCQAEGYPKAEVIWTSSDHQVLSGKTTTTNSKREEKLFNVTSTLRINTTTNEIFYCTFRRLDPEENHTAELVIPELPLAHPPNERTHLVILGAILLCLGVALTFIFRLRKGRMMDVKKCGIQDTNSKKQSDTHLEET
observed.property: IC50 (read off the curve)

binder	recorded.measurement
NB22D-21-154 (Fc fusion, not shown: 'full-length antibodies' were constructed) EVQLVESGGGLVQPGGSLRLSCAASRTASNAMGMHWYRQAPGKGREWVGMIFRDGNTIVTDSVKGRFTISRDNAKNTLYLQMNTLRAEDTAVYYCAADVRGYGRAWGQGTTVTVSS	~0.2 µg/mL
NB22D-21-45-106 (Fc fusion, not shown: 'full-length antibodies' were constructed) EVQLVESGGGLVQPGGSLRLSCAASRRWSNIHGMHWYRQAPGKGREWVGSRFITGNTIVTDSVKGRFTISRDNAKNTLYLQMNTLRAEDTAVYYCAADVRGYGRAWGQGTTVTVSS	~0.2 µg/mL
NB22D-21-123 (Fc fusion, not shown: 'full-length antibodies' were constructed) EVQLVESGGGLVQPGGSLRLSCAASPTASNIHGMHWYRQAPGKGREWVGMIFITGLTIVTDSVKGRFTISRDNAKNTLYLQMNTLRAEDTAVYYCAADVSGYGRAWGQGTTVTVSS	~0.2 µg/mL
